Quick list: Fold change in RNA expression between the ON state and the OFF state per entry.
# System: Renilla luciferase RNA
# Experiment: Barcoded aptazyme variant library screen: un-cleaved Renilla luciferase RNA by barcode read counts, HEK293-T cells
# Type: cell-based
# Experimental parameters: un-cleaved Renilla luciferase RNA by barcode read counts; with 1 mM theophylline (ON) over without theophylline (OFF); HEK293-T cells; triplicate
# Description: Based on the findings from Example 1, an aptazyme variant library was generated from the T3H48 ribozyme with one of seven variant theophylline aptamers inserted sequentially after each nucleotide of the DNA sequence encoding the T3H48 ribozyme sequence. […] The seven variant theophylline aptamers vary in their communication channels, which are the ribonucleotides of the aptamer that attach to the ribozyme sequence (see, Table 2). […]

Molecule	Measured value
RA348 (nucleic acid, expressed or natural sequence) DNA: GCGCGTCCTGGATTCGCGGAAACGCGTACATCCAGCTGACGACGAGAATACCAGCATCGTCTTGATGCCCTTGGAAGTCTCGGTCCCAAATAGGACGAAACGCGC	0.9

Let's switch to this molecule now.
Q: Which value of Fold change in RNA expression between the ON state and the OFF state has been reported for RA462 (nucleic acid, expressed or natural sequence) DNA: GCGCGTCCTGGATTCGCGCCGGAATACCAGCATCGTCTTGATGCCCTTGGAAGTCCGGGAAACGCGTACATCCAGCTGACGAGTCCCAAATAGGACGAAACGCGC in the records?
Result: 0.4
